assay-overview: Lipophilicity, log P of the compound in octanol/buffer incubated for 2 hrs under shaking condition by shake flask based HPLC-UV method
Assay type: physicochemical
Measured logD at 2 h, listed per entry.
measured-parameter: logD at 2 h

chemical-smiles: O=C(NCCc1ccc(Cl)cc1)c1c[nH]c2c([N+](=O)[O-])cc(C(F)(F)F)cc2c1=O
measured-parameter: logD at 2 h
recorded-result: 4.3
//
chemical-smiles: O=C(NCCc1ccc(C(F)(F)F)cc1)c1c[nH]c2c([N+](=O)[O-])cc(C(F)(F)F)cc2c1=O
measured-parameter: logD at 2 h
recorded-result: 4.4

====

assay-overview: Metabolic stability in CD-1 mouse liver microsome assessed as intrinsic clearance measured for 30 mins by LC-MS/MS analysis
Assay type: ADME
condition-context: liver microsomes, read-out: CLH

chemical-smiles: O=C(NCCc1ccc(F)cc1)c1c[nH]c2c([N+](=O)[O-])cc(C(F)(F)F)cc2c1=O
microsomal CLint: 48.8 µL/min/mg
--
chemical-smiles: O=C(NCCc1ccc(Cl)cc1)c1c[nH]c2c([N+](=O)[O-])cc(C(F)(F)F)cc2c1=O
microsomal CLint: 23 µL/min/mg
--
chemical-smiles: O=C(NCCc1ccc(C(F)(F)F)cc1)c1c[nH]c2c([N+](=O)[O-])cc(C(F)(F)F)cc2c1=O
microsomal CLint: 33.3 µL/min/mg

====

assay-overview: Metabolic stability in human liver microsome assessed as parent compound remaining after 30 mins by LC-MS/MS analysis
Assay type: ADME
condition-context: liver microsomes, read-out: Stability
Form field: remaining at 0.5 h (one value per entry).

chemical-smiles: O=C(NCCc1ccc(Cl)cc1)c1c[nH]c2c([N+](=O)[O-])cc(C(F)(F)F)cc2c1=O
value-units: %
remaining at 0.5 h: 75
--
chemical-smiles: O=C(NCCc1ccc(C(F)(F)F)cc1)c1c[nH]c2c([N+](=O)[O-])cc(C(F)(F)F)cc2c1=O
value-units: %
remaining at 0.5 h: 68
--
chemical-smiles: O=C(NCCc1ccc(F)cc1)c1c[nH]c2c([N+](=O)[O-])cc(C(F)(F)F)cc2c1=O
value-units: %
remaining at 0.5 h: 73

====

System: Mycobacterium tuberculosis
assay-overview: Antitubercular activity against Mycobacterium tuberculosis H37Rv assessed as reduction in microbial growth measured for 14 days
Format: functional
condition-context: 336 h, time 14 day

molecule: O=C(NCCc1ccc(F)cc1)c1c[nH]c2c([N+](=O)[O-])cc(C(F)(F)F)cc2c1=O
measurement-target: Mycobacterium tuberculosis
value-units: µM
MIC90: 2
--
molecule: NNC(=O)c1ccncc1 [ISONIAZID]
measurement-target: Mycobacterium tuberculosis
value-units: µM
MIC90: 3.5
--
molecule: COc1c(N2C[C@@H]3CCCN[C@@H]3C2)c(F)cc2c(=O)c(C(=O)O)cn(C3CC3)c12 [MOXIFLOXACIN]
measurement-target: Mycobacterium tuberculosis
value-units: µM
MIC90: 0.1
--
molecule: O=C(NCCc1ccc(C(F)(F)F)cc1)c1c[nH]c2c([N+](=O)[O-])cc(C(F)(F)F)cc2c1=O
measurement-target: Mycobacterium tuberculosis
value-units: µM
MIC90: 0.9
--
molecule: O=C(NCCc1ccc(Cl)cc1)c1c[nH]c2c([N+](=O)[O-])cc(C(F)(F)F)cc2c1=O
measurement-target: Mycobacterium tuberculosis
value-units: µM
MIC90: 1.9

====

assay-overview: Aqueous solubility of compound in PBS at pH6.5 incubated for 24 hrs by shake-flask method
Type: physicochemical
condition-context: pH 6.5
measured-parameter: solubility thermodynamic at 24 h

chemical-smiles: O=C(NCCc1ccc(C(F)(F)F)cc1)c1c[nH]c2c([N+](=O)[O-])cc(C(F)(F)F)cc2c1=O
recorded-result: < 5 µM
//
chemical-smiles: O=C(NCCc1ccc(F)cc1)c1c[nH]c2c([N+](=O)[O-])cc(C(F)(F)F)cc2c1=O
recorded-result: < 5 µM
//
chemical-smiles: O=C(NCCc1ccc(Cl)cc1)c1c[nH]c2c([N+](=O)[O-])cc(C(F)(F)F)cc2c1=O
recorded-result: < 5 µM

====

assay-overview: Cytotoxicity against HEK293 cells assessed as reduction in cell viability incubated for 20 hrs by resazurin staining based assay
Type: toxicity
condition-context: human

chemical-smiles: O=C(NCCc1ccc(Cl)cc1)c1c[nH]c2c([N+](=O)[O-])cc(C(F)(F)F)cc2c1=O
CC50 at 20 h: > 20 µM

chemical-smiles: O=C(NCCc1ccc(C(F)(F)F)cc1)c1c[nH]c2c([N+](=O)[O-])cc(C(F)(F)F)cc2c1=O
CC50 at 20 h: > 20 µM

chemical-smiles: O=C(NCCc1ccc(F)cc1)c1c[nH]c2c([N+](=O)[O-])cc(C(F)(F)F)cc2c1=O
CC50 at 20 h: > 20 µM

Source listed as ChEMBL document CHEMBL5620388.
